- Test system: MDA-MB-468 multi-cell spheroids, viability
- test.method.notes: Anticancer human tumor MDA-MB-468 cell line growth inhibition [IpAb];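 further: spheroids exposed to agents for seven days; 100% = DMSO vehicle control viability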
- experimental.parameters: second compound 0.316 µM; first compound 0.0316 µM; stronger effect = lower value
Threshold 70%: viability, T/C strictly smaller gives 1, otherwise -1.

QUERY: Regarding Cn1ncnc1[C@H]1c2n[nH]c(=O)c3cc(F)cc(c23)N[C@@H]1c1ccc(F)cc1 + CCN1CCN(Cc2ccc(Nc3ncc(F)c(-c4cc(F)c5nc(C)n(C(C)C)c5c4)n3)nc2)CC1 , kindly confirm whether its viability, T/C is beneath 70%.
RESULT: -1

QUERY: Regarding C=CCn1c(=O)c2cnc(Nc3ccc(N4CCN(C)CC4)cc3)nc2n1-c1cccc(C(C)(C)O)n1 + CC(C)NCC(C(=O)N1CCN(c2ncnc3c2C(C)CC3O)CC1)c1ccc(Cl)cc1 , kindly confirm whether its viability, T/C is beneath 70%.
RESULT: -1

QUERY: Regarding CC(C)n1nc(-c2ccc3oc(N)nc3c2)c2c(N)ncnc21 + CCN1CCN(Cc2ccc(Nc3ncc(F)c(-c4cc(F)c5nc(C)n(C(C)C)c5c4)n3)nc2)CC1 , kindly confirm whether its viability, T/C is beneath 70%.
RESULT: 1

QUERY: Regarding Cc1nc(NC(=O)N2CCCC2C(N)=O)sc1-c1ccnc(C(C)(C)C(F)(F)F)c1 (stereo not given) + CCN1CCN(Cc2ccc(Nc3ncc(F)c(-c4cc(F)c5nc(C)n(C(C)C)c5c4)n3)nc2)CC1 , kindly confirm whether its viability, T/C is beneath 70%.
RESULT: -1

###

- System: MDA-MB-468 multi-cell spheroids, viability
- test.method.notes: Anticancer human tumor MDA-MB-468 cell line growth inhibition [IpAb];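 further: spheroids exposed to agents for seven days; 100% = DMSO vehicle control viability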
- experimental.parameters: second compound 10 µM; first compound 0.316 µM; stronger effect = lower value
For each entry below, report its viability, T/C value.

QUERY: Item COc1c(OCCCN2CCOCC2)ccc2c3n(c(=NC(=O)c4cnc(N)nc4)nc12)CCN3 + CC(C)NCC(C(=O)N1CCN(c2ncnc3c2C(C)CC3O)CC1)c1ccc(Cl)cc1 : provide viability, T/C
RESULT: 4.92%

QUERY: Item Cc1nc(NC(=O)N2CCCC2C(N)=O)sc1-c1ccnc(C(C)(C)C(F)(F)F)c1 (stereo not drawn) + CC(C)NCC(C(=O)N1CCN(c2ncnc3c2C(C)CC3O)CC1)c1ccc(Cl)cc1 : provide viability, T/C
RESULT: 13.2%

QUERY: Item C=CC(=O)N1CCN(c2nc(=O)n(-c3c(C)ccnc3C(C)C)c3nc(-c4c(O)cccc4F)c(F)cc23)C(C)C1 (stereo not drawn) + CC(C)NCC(C(=O)N1CCN(c2ncnc3c2C(C)CC3O)CC1)c1ccc(Cl)cc1 : provide viability, T/C
RESULT: 20.5%

###

- Tested on: MDA-MB-468 multi-cell spheroids, viability
- test.method.notes: Anticancer human tumor MDA-MB-468 cell line growth inhibition [IpAb];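 further: spheroids exposed to agents for seven days; 100% = DMSO vehicle control viability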
- experimental.parameters: second compound 0.0316 µM; first compound 0.1 µM; stronger effect = lower value
For each entry below, report its viability, T/C value.

QUERY: Item C=CC(=O)N1CCN(c2nc(=O)n(-c3c(C)ccnc3C(C)C)c3nc(-c4c(O)cccc4F)c(F)cc23)C(C)C1 (stereo not given) + CCN1CCN(Cc2ccc(Nc3ncc(F)c(-c4cc(F)c5nc(C)n(C(C)C)c5c4)n3)nc2)CC1 : provide viability, T/C
RESULT: 90.9%

QUERY: Item CC1(C)CCC(CN2CCN(c3ccc(C(=O)NS(=O)(=O)c4ccc(NCC5CCOCC5)c([N+](=O)[O-])c4)c(Oc4cnc5[nH]ccc5c4)c3)CC2)=C(c2ccc(Cl)cc2)C1 + CCN1CCN(Cc2ccc(Nc3ncc(F)c(-c4cc(F)c5nc(C)n(C(C)C)c5c4)n3)nc2)CC1 : provide viability, T/C
RESULT: 86.9%

QUERY: Item Cc1nc(NC(=O)N2CCCC2C(N)=O)sc1-c1ccnc(C(C)(C)C(F)(F)F)c1 (stereo not given) + CCN1CCN(Cc2ccc(Nc3ncc(F)c(-c4cc(F)c5nc(C)n(C(C)C)c5c4)n3)nc2)CC1 : provide viability, T/C
RESULT: 83.4%

QUERY: Item Cn1nccc1Nc1nccc(-c2ccn(C(CO)c3ccc(Cl)c(F)c3)c(=O)c2)n1 (stereo not given) + CCN1CCN(Cc2ccc(Nc3ncc(F)c(-c4cc(F)c5nc(C)n(C(C)C)c5c4)n3)nc2)CC1 : provide viability, T/C
RESULT: 77.9%

QUERY: Item C=CCn1c(=O)c2cnc(Nc3ccc(N4CCN(C)CC4)cc3)nc2n1-c1cccc(C(C)(C)O)n1 + CCN1CCN(Cc2ccc(Nc3ncc(F)c(-c4cc(F)c5nc(C)n(C(C)C)c5c4)n3)nc2)CC1 : provide viability, T/C
RESULT: 87.9%

QUERY: Item CC(C)n1nc(-c2ccc3oc(N)nc3c2)c2c(N)ncnc21 + CCN1CCN(Cc2ccc(Nc3ncc(F)c(-c4cc(F)c5nc(C)n(C(C)C)c5c4)n3)nc2)CC1 : provide viability, T/C
RESULT: 11.6%

QUERY: Item Cn1ncc(Cl)c1-c1cc(C(=O)NC(CN)Cc2cccc(F)c2)sc1Cl (stereo not given) + CCN1CCN(Cc2ccc(Nc3ncc(F)c(-c4cc(F)c5nc(C)n(C(C)C)c5c4)n3)nc2)CC1 : provide viability, T/C
RESULT: 58.5%

QUERY: Item COc1c(OCCCN2CCOCC2)ccc2c3n(c(=NC(=O)c4cnc(N)nc4)nc12)CCN3 + CCN1CCN(Cc2ccc(Nc3ncc(F)c(-c4cc(F)c5nc(C)n(C(C)C)c5c4)n3)nc2)CC1 : provide viability, T/C
RESULT: 54.7%

QUERY: Item CCCS(=O)(=O)Nc1ccc(F)c(C(=O)c2c[nH]c3ncc(-c4ccc(Cl)cc4)cc23)c1F + CCN1CCN(Cc2ccc(Nc3ncc(F)c(-c4cc(F)c5nc(C)n(C(C)C)c5c4)n3)nc2)CC1 : provide viability, T/C
RESULT: 91.1%

QUERY: Item Cn1ncnc1[C@H]1c2n[nH]c(=O)c3cc(F)cc(c23)N[C@@H]1c1ccc(F)cc1 + CCN1CCN(Cc2ccc(Nc3ncc(F)c(-c4cc(F)c5nc(C)n(C(C)C)c5c4)n3)nc2)CC1 : provide viability, T/C
RESULT: 54%
